- TEST SUMMARY: soluble fraction after stress (log2 fold change); higher = more stays soluble; pooled small domains, quantitative proteomics
- CONDITION SET: stress: 50 degC
Label 1.0 when soluble fraction (log2) >= -0.005; otherwise 0.0.

PRIMARY SEQUENCE	GROUP LABEL
HMDFMNSEIKKIVEDLKLTLQSLNYTKNEIKSILPVINKETDNLIKKEKYASFENLLRLAMNHLDNN	0.0
HMQAPAFDYSKVQEGVTVNHKIFGDGTVSWIDKARKYIRVQFSVGEKMFTMETAFVQGFLSL	0.0
HMLPAGSDAILRYLSSGAVKGIGVATAARIVEKFGDETLRILEEEPGRLAEIKGITAAKAKAIGEAFAGQ	0.0
HMPYSPTPGSAPARLIAHLQEHGDSVNRTAIAELLQVDRKNVHNYLARAVTHGLLLRHGGGAYSLP	1.0
HMPTGRVVIPLNRLTASDVARILDEAYGRDHNFEVVKPSRLAKGIIVIGPKSEIDGIKELLAH	0.0
HMEQVLDEEIIKSAVQKVIKDNPSAVSDYKAGKKTAFQFLIGKAMAELQGKGHPGKISELLEKE	1.0
HMSQRINLNSASIEDMQSLDISNEKIDSIIDYRNRYGNIHNIYELLKIPGITIGDIHSIRNAVTVEIPH	0.0
HMVPFISVTPTSLSFAKGGESKTVDIEASGAFSVGKVPTGFNLEVVNGRITITADANTGAARNGSVEFILA	0.0
HMFIEPPSLEELERRLRGRGTETDDVVDMRMRTALVELSQKMEYDYRLVNDDLDEATRQLVAYVNEIAEQ	1.0
HMGNGDTNERIATLMQILAKQESIINQYGLENPVVSPQMYVRTLKKVVELSGFKDASSYFADIPDGWKA	0.0
HMNGDWISARQEYYIRGLWDLASRAKDEASLQAMLQRIAGVTQIEWISKEKATKVILALRDIAKK	0.0
HMSVAPISYSQFESYLEQGKVASVAVGQDTIAGRFTAPVDGKSQFVTTIVNPQILDRIDKSGVEITGV	1.0
HMSNWYKNNETDQIWWKDTPDSVGEWLFSFDKKQVFNMFADYPHNLTPEQKKIFDEENPEWSDRP	0.0
HMAVSSHAVKQRIRSLIQAEDPAAPLSDEALRLALSALGVDVSRRVIAKYRAELNIPSSSQRKK	1.0
HMAPGVHVEALLPYTAGSLVSQIREYGNVDAVEYRDTGILLQADVDERLAAQIMDQALEDPV	1.0
HMNSEERVLDTASKWLVKLDEGLDESEAQVLKVWLATPLHRDTFLEMVALWDKMSVLNELADIV	0.0
HMELNKNDLKIIKNISHIYPYFTPVKILQLILSKKFKTIDYNKILKSTSILTTDRSHLYYILNN	1.0

###

- TEST SUMMARY: soluble fraction after stress (log2 fold change); higher = more stays soluble; pooled small domains, quantitative proteomics
- CONDITION SET: stress: 50 degC
Listed here are sequences together with their documented soluble fraction (log2).
PROPERTY MEASURED: soluble fraction (log2)

PRIMARY SEQUENCE	RESULT
HMGPLSDRSVADWLLRLGLADTANNRLLLQVMHAAGLPLERTAVRAMRETAAGRPEGTDAREWLQAAAAAQ	-0.208
HMGVKHKHKGAGELLAALRTMFPNSSVSTLRKMLTQGRVVLNGEVVHRAKHELTDGDTIEVLERQRAER	0.209
HMSDRLRLGRRIRAARLEQNLSQAALAERLGISASYLNLLEHDRRSLTTVLLLKLAQVLGLELRDLAAG	-1.99
HMGEKTLSEKVYDRLKELIMDGELERGTKITETSIAKMFDVSPTPVREAFRKLASDGLIEVASWKGVIVKG	-0.0886

###

- TEST SUMMARY: soluble fraction after stress (log2 fold change); higher = more stays soluble; pooled small domains, quantitative proteomics
- CONDITION SET: stress: 50 degC
Lab note: anything with soluble fraction (log2) at or over -0.2 counts as MET; the rest go in NOT MET.

PRIMARY SEQUENCE	GROUP LABEL
HMNKEVDLPNFVGMTKENAQAQADKIKIKLEFEEEYSSDVEEGKIISQNPEYKENYKIKEKSTVSLKI	MET
HMTRTEYMAQLEKYLKKLPHKEFQEAITFFNEYFDEAGPEKETAIMEELGSPKEAASELITNILNRHI	MET
HMSRTLLVYVTGAVRQPGVYELPEGSRFFDAVKAAGDVLPYAVMEDINMAEPLSDGMKIHIPLDPEQ	MET
HMPFNREYWIEQLLKEVGLMGTPYAELDKHEVELDSPTGRASGFKVNAKTYVDQQLLFIENEYNNQPE	MET
HMSQIAENNQKYVGTIQKVLVEGTSKNNDDMLTGRTDSNKVVIFEGDKKLIGNMVELKIVSEHMWYLKGEL	MET
HMHVSIAENIRRIRTQHDMTQEEFGKVAAVSAMAVSQWENGRAVPRMGAVQRIADYFNISKGEVID	NOT MET
HMSEQVQLQAQVEDDLIGKRLDQVVAQLFPDYSRSRLQGWIKDGSLTVDGESRRPRDKMMGGEVVRVEATL	MET
HMIAGHLQIKNDYYYMVLSYTDSDGKRKQPWIPTGLPMKGNKKRAEKMLIETRQTYVPPVSSG	NOT MET

###

soluble fraction (log2) reference
- TEST SUMMARY: soluble fraction after stress (log2 fold change); higher = more stays soluble; pooled small domains, quantitative proteomics
- CONDITION SET: stress: 50 degC

PRIMARY SEQUENCE	soluble fraction (log2)
HMKFKDYYAALGIDRNADLEQIKKAYRKLARQYHPDVSKAPDAEARFKDAAEAYATLKNPEKRAAYDELGS	0.062
HMPEFKDMLKFFRMREHLSQSELAEKLGISASTVSMYEVGRRQPDFETEEKIADFFNTDLNTLRG	-0.39
HMNMTDVLVVNQTVRGGTQITESMLSVKKVDKSSLPDNYLKASLKDEVVGKYFDLGLTSGGVLTKDNISVS	0.00597
HMSDHSSLAGKEGVAVTPLRPAGTAEIDGKRMDVVTMGDYIKAGDHIKVVKVEGNRIIVAKN	0.0433
HMSEQLHALIDRLDDIPDDELKKNWPGTLRDLVDVISAELHRQGIEPAQAGMLARKVAAAQAGYMG	-0.344
HMENSYSVEDLALKAAISVDTIRYYQGLGLISPPQKNGRRAIYGNDHISRLEEIKKLAFEGFSLRQISLL	-0.224
HMEVLTEPKVQSIDTHGEKSTFVIESPNPLQPDEIAKLVGADGISVRVDRTWLKSHRDSTWTYSILTVS	-0.00748
HMKQAINFSDLNSLEEGLGIAIRQKWNEVSINDVPEDKIELVEDWINNNRGKYKGINISIGSTY	0.167
HMNLNIGNNIKNIRKSKNMTQTDFAELMGLSRSYIGDLENNRSNPSIKTLEAIARALDVPIVALIN	-0.399
HMKVQEMTANSFLTQWEAGNVKTLDILPEGIIKGELNDGTKFQLYYSSAAGLIDDVKKNPEKFANTTVSEK	0.129
HMSVGDLPPEAREIWKLLDGRELSLDLLAEETGRETGALLSTLMMLEMKLLVEHGSDMVYRRIPRR	-1.78
HMQITSTDEIEKMIDELIAANPEQTKQYQNGNHKVAGWFVGQMMKASKGKANPQMVNNLLQKKL	0.0271
HMLINIKTNSAVNVRSGPGMGFEVVNTYPSGYILQAKEMQKDGGDNVWYKVKDGWLSANYTIDI	-0.198
HMGKEIEAPDFKNMTLKEAKIAAKEYKIRIKKGDEVVSEEVEKGRIVSQDPDAGTTIKTGSTVTVNISKGL	0.126
HMEKKGTVVIATVKGDIHDIGKNIVKVLLENYGFDVIDLGKDVPPEAVVEAVQQSGARLVGLSALM	-0.594
HMSIQDLMNSKDLSGFKVEMLSNEDIVKYKSMLQSSGFSESQAEQLALQRGLPTSELIKLRTRISDVAVT	0.0344
HMGKMTSTLGVHIAAYRKEHGETVAQFASRSGVSVSSIRRIESGISDPSADLVWKISRHMGMTMDDLFKKM	-3.87
HMNAEGLIGREAVALTAVDAHGGRVRLGGEEWSARLSKENGGVSRLSVGDPVRVTDIDGAIAVVAP	0.187
HMNHHEIIMKNIDTLLKEKNISISKLEKSLGISNGYISRLRNGKYNFSLDLLLKLAKKFKISIDYLLTDFD	0.00249
HMSENEIDELRRRFAREAMALMERKGEEVSRTRLAAELSVARARIDAVFPEESDLLEAVTAEWFA	-0.562
HMPEGTYLEKLAIENNNLQLIGLSREASQLVQLLQDAPQWRKVNLTGVLQADGAASGRDRFTMTAELQ	0.0683
HMDSDFIKIEVLFNERNRLDLKAMMEASGFTDRGQFLSIMADLTGDENWDRNLDRGDIFYLPRSFTI	-1.22
HMAQSTALVNLAQAEINKRGLTQTEVQARLSEEGINVNSISPAEYPKYQKQILSILDQMQKEKQLSKEV	0.412
HMNINLNVGKRLKSIRQNKELSLDEVSNLTNVSKPALAQIERGASSPTINTLWKISKGLKVPLSYFLQE	-0.0405
HMSMFSEILRTLRKAKGLTQRELAGHLGVTQQMVAKWEKGQSTPGPDQLTRMAELLEVSTDTLLGR	-0.162
HMEVKRANRKERFLEALPYQFSRQDYLNIADKNKIPHKTAEGYITKFVDAGLIHREAHNNYTNPTKA	0.146
HMRTNVDISPKILEWVLSQVRNRTTNDVIETIQIWIKGEKPPTFNQVEKISKATGVPLGYFFLKTPPVED	-0.805
HMAPTGTDRQTPHTRDELYLVLSGTGTFVNGDARHPFGPGDALFVPAGAEHRFEDFSDDFRTWVVFYGAEG	-0.162
HMSTGYEMVREVANQGSFSKAANSLGVSGPAVSKQVKSLEERLGLVLFHRTTRAVSLTQAGRQLVDVLN	0.0396
HMQTQYIVDTKTTLLVRTGPGKSNSQFGRLKNGETINVYAIKNGWAEISYNGKTGYVSEQYIKLA	-3.12
HMLENYEGFKQKILKLTGIDLSSYKERQMRRRIDSLIHRNNYDDYDEYFKALTQNSNLYDEFINYLTI	-0.539
HMAISSADRIVAELRTWISGASPGTQLPSSRTLAARYGASPVTVQKALHTLAGMGLVEARPGAGTFVRRQS	-0.189
HMQKPDIEVDFAEGDMVVVTGGAWKDTAGVITGINMQKQTVTINVELFGRETPVEISFTEIKKA	0.00574
